Value source: ChEMBL document CHEMBL4138103

# EXPERIMENT_DESCRIPTION: Cytotoxicity against human SH-SY5Y cells assessed as cell survival at 500 uM after 24 hrs by MTT assay relative to control
# Assay type: cell-based
# MEASUREMENT_PARAMETERS: read-out: Survival
Parameter viability at 24 h, 500 µM: see the listing below.
PARAMETER: viability at 24 h, 500 µM

INSERT INTO results (molecule, parameter, result) VALUES
  ('COc1ccc(C#Cc2cc(C(F)(F)F)cc(C(F)(F)F)c2)cc1', 'viability at 24 h, 500 µM', '20.9%'),
  ('C(#Cc1ccc2c(c1)OCO2)c1ccsc1', 'viability at 24 h, 500 µM', '32.9%'),
  ('CC(=O)Nc1cccc(/C=C/c2ccc3c(c2)OCO3)c1', 'viability at 24 h, 500 µM', '7.78%'),
  ('CCCC(=O)Nc1ccc(/C=C/c2ccc3c(c2)OCO3)cc1', 'viability at 24 h, 500 µM', '40.7%'),
  ('O=C(Nc1ccc(/C=C/c2ccc3c(c2)OCO3)cc1)C1CC1', 'viability at 24 h, 500 µM', '97.3%'),
  ('CCOc1ccc(C#Cc2ccc3c(c2)OCO3)cc1', 'viability at 24 h, 500 µM', '41%'),
  ('CC(=O)Oc1ccc(/C=C/c2cc(C)cc(C)c2)cc1', 'viability at 24 h, 500 µM', '2.8%'),
  ('N#Cc1ccc(/C=C/c2ccc3c(c2)OCO3)cc1', 'viability at 24 h, 500 µM', '43.7%'),
  ('COc1ccc(/C=C/c2ccc(N)cc2)cc1OC', 'viability at 24 h, 500 µM', '51.7%'),
  ('COc1ccc(C#Cc2cc(C)cc(C)c2)cc1', 'viability at 24 h, 500 µM', '24.3%'),
  ('COc1ccc(/C=C/c2ccc(NC(C)=O)cc2)cc1OC', 'viability at 24 h, 500 µM', '56.5%'),
  ('Cc1ccc(C#Cc2ccc3c(c2)OCO3)cc1', 'viability at 24 h, 500 µM', '24.8%'),
  ('COc1cccc(/C=C/c2ccc3c(c2)OCO3)c1', 'viability at 24 h, 500 µM', '52.7%'),
  ('COc1ccc(/C=C/c2ccc(Cl)cc2)cc1OC', 'viability at 24 h, 500 µM', '51.6%'),
  ('CC(=O)Nc1ccc(/C=C/c2ccc3c(c2)OCO3)cc1', 'viability at 24 h, 500 µM', '91.9%'),
  ('CCCCCc1ccc(C#Cc2ccc(OCc3ccccc3)cc2)cc1', 'viability at 24 h, 500 µM', '51.3%'),
  ('COc1cc(/C=C/C(=O)c2ccc(O)cc2)cc(OC)c1', 'viability at 24 h, 500 µM', '3.53%'),
  ('C(=C\c1ccc2c(c1)OCO2)/c1ccc(OCc2ccccc2)cc1', 'viability at 24 h, 500 µM', '72.7%'),
  ('COc1ccc(/C=C/c2ccc3c(c2)OCO3)cc1', 'viability at 24 h, 500 µM', '69.6%'),
  ('C(=C\c1ccc2c(c1)OCO2)/c1ccncc1', 'viability at 24 h, 500 µM', '4.26%'),
  ('CS(=O)(=O)Nc1ccc(/C=C/c2ccc3c(c2)OCO3)cc1', 'viability at 24 h, 500 µM', '68.9%'),
  ('Nc1ccc(/C=C/c2cccc(OC(F)(F)F)c2)cc1', 'viability at 24 h, 500 µM', '31.9%'),
  ('Oc1ccc(/C=C/c2cccc(OC(F)(F)F)c2)cc1', 'viability at 24 h, 500 µM', '55.4%'),
  ('CC(=O)c1ccc(/C=C/c2ccc(O)cc2)cc1', 'viability at 24 h, 500 µM', '59.2%'),
  ('COc1ccc(/C=C/c2ccc(O)cc2)cc1OC', 'viability at 24 h, 500 µM', '44.1%'),
  ('COc1ccc2c(c1)OC(c1ccc3c(c1)OCO3)CC2=O (stereo unspecified)', 'viability at 24 h, 500 µM', '44.8%'),
  ('CN(C)c1ccc(/C=C/C(=O)c2ccc3c(c2)OCO3)cc1', 'viability at 24 h, 500 µM', '40.2%'),
  ('Oc1ccc(/C=C/c2ccc(Cl)cc2)cc1O', 'viability at 24 h, 500 µM', '69.2%'),
  ('CC(=O)Nc1ccc(/C=C/C(=O)c2ccc3c(c2)OCO3)cc1', 'viability at 24 h, 500 µM', '2.78%'),
  ('CC(=O)Nc1cccc(C#Cc2ccc3c(c2)OCO3)c1', 'viability at 24 h, 500 µM', '62.9%'),
  ('COc1ccc(C(=O)/C=C/c2ccc3c(c2)OCO3)c(O)c1', 'viability at 24 h, 500 µM', '59.9%'),
  ('COc1ccc(/C=C/C(=O)c2ccc3c(c2)OCO3)cc1O', 'viability at 24 h, 500 µM', '22.2%'),
  ('CCC(=O)Nc1ccc(/C=C/c2ccc3c(c2)OCO3)cc1', 'viability at 24 h, 500 µM', '80.6%'),
  ('CC(C)C(=O)Nc1ccc(/C=C/c2ccc3c(c2)OCO3)cc1', 'viability at 24 h, 500 µM', '48.4%'),
  ('COc1ccc(C#Cc2ccc3c(c2)OCO3)cc1', 'viability at 24 h, 500 µM', '69.1%'),
  ('COc1ccc(C(=O)/C=C/c2ccc(O)c(OC)c2)cc1', 'viability at 24 h, 500 µM', '39.8%'),
  ('COc1ccc(/C=C/c2ccc(N)c(F)c2)cc1', 'viability at 24 h, 500 µM', '65.1%'),
  ('O=C(Nc1ccc(/C=C/c2ccc3c(c2)OCO3)cc1)c1ccccc1', 'viability at 24 h, 500 µM', '99.3%'),
  ('CN(C)c1ccc(/C=C/c2ccc3c(c2)OCO3)cc1', 'viability at 24 h, 500 µM', '51.2%'),
  ('COc1ccc(OCC#Cc2ccc3c(c2)OCO3)cc1', 'viability at 24 h, 500 µM', '79.7%'),
  ('Oc1ccc(/C=C/c2ccc3c(c2)OCCO3)cc1', 'viability at 24 h, 500 µM', '2%'),
  ('COc1ccccc1/C=C/c1ccc2c(c1)OCO2', 'viability at 24 h, 500 µM', '33.6%'),
  ('COc1cc(/C=C/c2ccc(O)cc2)cc(OC)c1OC', 'viability at 24 h, 500 µM', '25.9%'),
  ('Oc1ccc(/C=C/c2cc(F)cc(F)c2)cc1', 'viability at 24 h, 500 µM', '-11%'),
  ('COc1ccc(C#Cc2ccc(OC)c(OC)c2)cc1', 'viability at 24 h, 500 µM', '78.9%'),
  ('CC(=O)Nc1ccc(C#Cc2ccc3c(c2)OCO3)cc1', 'viability at 24 h, 500 µM', '51.3%'),
  ('Nc1ccc(/C=C/c2ccc3c(c2)OCO3)cc1', 'viability at 24 h, 500 µM', '39.1%'),
  ('C(#Cc1cccs1)c1ccc2c(c1)OCO2', 'viability at 24 h, 500 µM', '27.5%'),
  ('CC(=O)Nc1ccc(/C=C/c2ccc3c(c2)OCO3)cc1F', 'viability at 24 h, 500 µM', '82%'),
  ('COc1cc(/C=C/c2ccc(O)cc2)cc(OC)c1', 'viability at 24 h, 500 µM', '32.7%'),
  ('N#Cc1cccc(/C=C/c2ccc(O)cc2)c1', 'viability at 24 h, 500 µM', '16.9%');
